- Test system: HeLa Kyoto
- Assay Explanation: solubility in G1/S (NP-40 vs SDS abundance) (log2 ratio); higher = more soluble
- Condition Context: cell cycle stage: G1/S
Measure Name: solubility in G1/S (log2)
Answers are plain numbers.

Some solved entries appear below for comparison.
Sequence | solubility in G1/S (log2)
MDAPGALAQTAAPGPGRKELKIVIVGDGGCGKTSLLMVYSQGSFPEHYAPSVFEKYTASVTVGSKEVTLNLYDTAGQEDYDRLRPLSYQNTHLVLICYDVMNPTSYDNVLIKWFPEVTHFCRGIPMVLIGCKTDLRKDKEQLRKLRAAQLEPITYMQGLSACEQIRAALYLECSAKFRENVEDVFREAAKVALSALKKAQRQKKRRLCLLL [RHOF] | -0.0436
MALQGISVVELSGLAPGPFCAMVLADFGARVVRVDRPGSRYDVSRLGRGKRSLVLDLKQPRGAAVLRRLCKRSDVLLEPFRRGVMEKLQLGPEILQRENPRLIYARLSGFGQSGSFCRLAGHDINYLALSGVLSKIGRSGENPYAPLNLLADFAGGGLMCALGIIMALFDRTRTGKGQVIDANMVEGTAYLSSFLWKTQKLSLWEAPRGQNMLDGGAPFYTTYRTADGEFMAVGAIEPQFYELLIKGLGLKSDELPNQMSMDDWPEMKKKFADVFAEKTKAEWCQIFDGTDACVTPVLTFEEVVHHDHNKERGSFITSEEQDVSPRPAPLLLNTPAIPSFKRDPFIGEHTEEILEEFGFSREEIYQLNSDKIIESNKVKASL [AMACR] | 0.155

Now for a further sequence.
Please indicate solubility in G1/S (log2) recorded for MSCINLPTVLPGSPSKTRGQIQVILGPMFSGKSTELMRRVRRFQIAQYKCLVIKYAKDTRYSSSFCTHDRNTMEALPACLLRDVAQEALGVAVIGIDEGQFFPDIVEFCEAMANAGKTVIVAALDGTFQRKPFGAILNLVPLAESVVKLTAVCMECFREAAYTKRLGTEKEVEVIGGADKYHSVCRLCYFKKASGQPAGPDNKENCPVPGKPGEAVAARKLFAPQQILQCSPAN [TK1] 0.28

###

- System: HeLa Kyoto
- Assay Explanation: melting temperature (median over replicates), in situ; higher = more thermally stable
- Condition Context: cell cycle stage: G1/S
Give melting temperature for every item shown.
Answers are plain numbers, in °C.

Substance | Measured Target | melting temperature (°C)
MPEAPPLLLAAVLLGLVLLVVLLLLLRHWGWGLCLIGWNEFILQPIHNLLMGDTKEQRILNHVLQHAEPGNAQSVLEAIDTYCEQKEWAMNVGDKKGKIVDAVIQEHQPSVLLELGAYCGYSAVRMARLLSPGARLITIEINPDCAAITQRMVDFAGVKDKVTLVVGASQDIIPQLKKKYDVDTLDMVFLDHWKDRYLPDTLLLEECGLLRKGTVLLADNVICPGAPDFLAHVRGSSCFECTHYQSFLEYREVVDGLEKAIYKGPGSEAGP [COMT] | HeLa Kyoto | 52.9
MSSRKQGSQPRGQQSAEEENFKKPTRSNMQRSKMRGASSGKKTAGPQQKNLEPALPGRWGGRSAENPPSGSVRKTRKNKQKTPGNGDGGSTSEAPQPPRKKRARADPTVESEEAFKNRMEVKVKIPEELKPWLVEDWDLVTRQKQLFQLPAKKNVDAILEEYANCKKSQGNVDNKEYAVNEVVAGIKEYFNVMLGTQLLYKFERPQYAEILLAHPDAPMSQVYGAPHLLRLFVRIGAMLAYTPLDEKSLALLLGYLHDFLKYLAKNSASLFTASDYKVASAEYHRKAL [MORF4L2] | HeLa Kyoto | 52.9
MTRHGKNCTAGAVYTYHEKKKDTAASGYGTQNIRLSRDAVKDFDCCCLSLQPCHDPVVTPDGYLYEREAILEYILHQKKEIARQMKAYEKQRGTRREEQKELQRAASQDHVRGFLEKESAIVSRPLNPFTAKALSGTSPDDVQPGPSVGPPSKDKDKVLPSFWIPSLTPEAKATKLEKPSRTVTCPMSGKPLRMSDLTPVHFTPLDSSVDRVGLITRSERYVCAVTRDSLSNATPCAVLRPSGAVVTLECVEKLIRKDMVDPVTGDKLTDRDIIVLQRGGTGFAGSGVKLQAEKSRPVMQA [NOSIP] | HeLa Kyoto | 45.8

# assay system HeLa Kyoto: give melting temperature of HNRNPU 47.1

###

- Tested on: HeLa Kyoto
- Assay Explanation: thermal stability score vs G1/S (z-score of summed log2 fold changes over temperatures); higher = more thermally stable than in G1/S
- Condition Context: cell cycle stage: early G1 (4.5 h after nocodazole release)
Please mark met if the recorded thermal stability score is equal to or greater than -0.5, and not met if it falls below.

Substance | Discrete Label
HDGFRP2 | met
MEEGGNLGGLIKMVHLLVLSGAWGMQMWVTFVSGFLLFRSLPRHTFGLVQSKLFPFYFHISMGCAFINLCILASQHAWAQLTFWEASQLYLLFLSLTLATVNARWLEPRTTAAMWALQTVEKERGLGGEVPGSHQGPDPYRQLREKDPKYSALRQNFFRYHGLSSLCNLGCVLSNGLCLAGLALEIRSL [TMEM205] | not met
MLRCGGRGLLLGLAVAAAAVMAARLMGWWGPRAGFRLFIPEELSRYRGGPGDPGLYLALLGRVYDVSSGRRHYEPGSHYSGFAGRDASRAFVTGDCSEAGLVDDVSDLSAAEMLTLHNWLSFYEKNYVCVGRVTGRFYGEDGLPTPALTQVEAAITRGLEANKLQLQEKQTFPPCNAEWSSARGSRLWCSQKSGGVSRDWIGVPRKLYKPGAKEPRCVCVRTTGPPSGQMPDNPPHRNRGDLDHPNLAEYTGCPPLAITCSFPL [CYB5D2] | met
MAAPGSCALWSYCGRGWSRAMRGCQLLGLRSSWPGDLLSARLLSQEKRAAETHFGFETVSEEEKGGKVYQVFESVAKKYDVMNDMMSLGIHRVWKDLLLWKMHPLPGTQLLDVAGGTGDIAFRFLNYVQSQHQRKQKRQLRAQQNLSWEEIAKEYQNEEDSLGGSRVVVCDINKEMLKVGKQKALAQGYRAGLAWVLGDAEELPFDDDKFDIYTIAFGIRNVTHIDQALQEAHRVLKPGGRFLCLEFSQVNNPLISRLYDLYSFQVIPVLGEVIAGDWKSYQYLVESIRRFPSQEEFKDMIEDAGFHKVTYESLTSGIVAIHSGFKL [COQ5] | not met
MVRTKTWTLKKHFVGYPTNSDFELKTAELPPLKNGEVLLEALFLTVDPYMRVAAKRLKEGDTMMGQQVAKVVESKNVALPKGTIVLASPGWTTHSISDGKDLEKLLTEWPDTIPLSLALGTVGMPGLTAYFGLLEICGVKGGETVMVNAAAGAVGSVVGQIAKLKGCKVVGAVGSDEKVAYLQKLGFDVVFNYKTVESLEETLKKASPDGYDCYFDNVGGEFSNTVIGQMKKFGRIAICGAISTYNRTGPLPPGPPPEIVIYQELRMEAFVVYRWQGDARQKALKDLLKWVLEGKIQYKEYIIEGFENMPAAFMGMLKGDNLGKTIVKA [PTGR1] | met
MMIHGFQSSHRDFCFGPWKLTASKTHIMKSADVEKLADELHMPSLPEMMFGDNVLRIQHGSGFGIEFNATDALRCVNNYQGMLKVACAEEWQESRTEGEHSKEVIKPYDWTYTTDYKGTLLGESLKLKVVPTTDHIDTEKLKAREQIKFFEEVLLFEDELHDHGVSSLSVKIRVMPSSFFLLLRFFLRIDGVLIRMNDTRLYHEADKTYMLREYTSRESKISSLMHVPPSLFTEPNEISQYLPIKEAVCEKLIFPERIDPNPADSQKSTQVE [TIPRL] | not met

# ---- query substance ----
Identify whether the reported thermal stability score of the following substance is -0.5 or greater: MWLWEDQGGLLGPFSFLLLVLLLVTRSPVNACLLTGSLFVLLRVFSFEPVPSCRALQVLKPRDRISAIAHRGGSHDAPENTLAAIRQAAKNGATGVELDIEFTSDGIPVLMHDNTVDRTTDGTGRLCDLTFEQIRKLNPAANHRLRNDFPDEKIPTLREAVAECLNHNLTIFFDVKGHAHKATEALKKMYMEFPQLYNNSVVCSFLPEVIYKMRQTDRDVITALTHRPWSLSHTGDGKPRYDTFWKHFIFVMMDILLDWSMHNILWYLCGISAFLMQKDFVSPAYLKKWSAKGIQVVGWTVNTFDEKSYYESHLGSSYITDSMVEDCEPHF [GDE1] met

###

- Tested on: HeLa Kyoto
- Assay Explanation: solubility change mitosis vs G1/S (difference of NP-40 vs SDS log2 ratios) (log2 ratio difference); higher = more soluble in mitosis
Classification by solubility change mitosis (log2) follows these ranges: category 1: < -0.08; category 2: ≥ -0.08 and < -0.003; category 3: ≥ -0.003

Please review the following examples before continuing.
Substance | Discrete Label
MAAGIVASRRLRDLLTRRLTGSNYPGLSISLRLTGSSAQEEASGVALGEAPDHSYESLRVTSAQKHVLHVQLNRPNKRNAMNKVFWREMVECFNKISRDADCRAVVISGAGKMFTAGIDLMDMASDILQPKGDDVARISWYLRDIITRYQETFNVIERCPKPVIAAVHGGCIGGGVDLVTACDIRYCAQDAFFQVKEVDVGLAADVGTLQRLPKVIGNQSLVNELAFTARKMMADEALGSGLVSRVFPDKEVMLDAALALAAEISSKSPVAVQSTKVNLLYSRDHSVAESLNYVASWNMSMLQTQDLVKSVQATTENKELKTVTFSKL [ECH1] | category 2
MAAGCCGVKKQKLSSSPPSGSGGGGGASSSSHCSGESQCRAGELGLGGAGTRLNGLGGLTGGGSGSGCTLSPPQGCGGGGGGIALSPPPSCGVGTLLSTPAAATSSSPSSSSAASSSSPGSRKMVVSAEMCCFCFDVLYCHLYGYQQPRTPRFTNEPYPLFVTWKIGRDKRLRGCIGTFSAMNLHSGLREYTLTSALKDSRFPPMTRDELPRLFCSVSLLTNFEDVCDYLDWEVGVHGIRIEFINEKGSKRTATYLPEVAKEQGWDHIQTIDSLLRKGGYKAPITNEFRKTIKLTRYRSEKMTLSYAEYLAHRQHHHFQNGIGHPLPPYNHYS [AMMECR1] | category 1
MSVGFIGAGQLAFALAKGFTAAGVLAAHKIMASSPDMDLATVSALRKMGVKLTPHNKETVQHSDVLFLAVKPHIIPFILDEIGADIEDRHIVVSCAAGVTISSIEKKLSAFRPAPRVIRCMTNTPVVVREGATVYATGTHAQVEDGRLMEQLLSSVGFCTEVEEDLIDAVTGLSGSGPAYAFTALDALADGGVKMGLPRRLAVRLGAQALLGAAKMLLHSEQHPGQLKDNVSSPGGATIHALHVLESGGFRSLLINAVEASCIRTRELQSMADQEQVSPAAIKKTILDKVKLDSPAGTALSPSGHTKLLPRSLAPAGKD [PYCR1] | category 2
METPPVNTIGEKDTSQPQQEWEKNLRENLDSVIQIRQQPRDPPTETLELEVSPDPASQILEHTQGAEKLVAELEGDSHKSHGSTSQMPEALQASDLWYCPDGSFVKKIVIRGHGLDKPKLGSCCRVLALGFPFGSGPPEGWTELTMGVGPWREETWGELIEKCLESMCQGEEAELQLPGHSGPPVRLTLASFTQGRDSWELETSEKEALAREERARGTELFRAGNPEGAARCYGRALRLLLTLPPPGPPERTVLHANLAACQLLLGQPQLAAQSCDRVLEREPGHLKALYRRGVAQAALGNLEKATADLKKVLAIDPKNRAAQEELGKVVIQGKNQDAGLAQGLRKMFG [FKBPL] | category 3
MASKKVCIVGSGNWGSAIAKIVGGNAAQLAQFDPRVTMWVFEEDIGGKKLTEIINTQHENVKYLPGHKLPPNVVAVPDVVQAAEDADILIFVVPHQFIGKICDQLKGHLKANATGISLIKGVDEGPNGLKLISEVIGERLGIPMSVLMGANIASEVADEKFCETTIGCKDPAQGQLLKELMQTPNFRITVVQEVDTVEICGALKNVVAVGAGFCDGLGFGDNTKAAVIRLGLMEMIAFAKLFCSGPVSSATFLESCGVADLITTCYGGRNRKVAEAFARTGKSIEQLEKELLNGQKLQGPETARELYSILQHKGLVDKFPLFMAVYKVCYEGQPVGEFIHCLQNHPEHM [GPD1] | category 3
MAGNFDSEERSSWYWGRLSRQEAVALLQGQRHGVFLVRDSSTSPGDYVLSVSENSRVSHYIINSSGPRPPVPPSPAQPPPGVSPSRLRIGDQEFDSLPALLEFYKIHYLDTTTLIEPVSRSRQGSGVILRQEEAEYVRALFDFNGNDEEDLPFKKGDILRIRDKPEEQWWNAEDSEGKRGMIPVPYVEKYRPASASVSALIGGNQEGSHPQPLGGPEPGPYAQPSVNTPLPNLQNGPIYARVIQKRVPNAYDKTALALEVGELVKVTKINVSGQWEGECNGKRGHFPFTHVRLLDQQNPDEDFS [CRK] | category 1
MVAVLGGRGVLRLRLLLSALKPGIHVPRAGPAAAFGTSVTSAKVAVNGVQLHYQQTGEGDHAVLLLPGMLGSGETDFGPQLKNLNKKLFTVVAWDPRGYGHSRPPDRDFPADFFERDAKDAVDLMKALKFKKVSLLGWSDGGITALIAAAKYPSYIHKMVIWGANAYVTDEDSMIYEGIRDVSKWSERTRKPLEALYGYDYFARTCEKWVDGIRQFKHLPDGNICRHLLPRVQCPALIVHGEKDPLVPRFHADFIHKHVKGSRLHLMPEGKHNLHLRFADEFNKLAEDFLQ [BPHL] | category 2
MSKGTSSDTSLGRVSRAAFPSPTAAEMAEISRIQYEMEYTEGISQRMRVPEKLKVAPPNADLEQGFQEGVPNASVIMQVPERIVVAGNNEDVSFSRPADLDLIQSTPFKPLALKTPPRVLTLSERPLDFLDLERPPTTPQNEEIRAVGRLKRERSMSENAVRQNGQLVRNDSLWHRSDSAPRNKISRFQAPISAPEYTVTPSPQQARVCPPHMLPEDGANLSSARGILSLIQSSTRRAYQQILDVLDENRRPVLRGGSAAATSNPHHDNVRYGISNIDTTIEGTSDDLTVVDAASLRRQIIKLNRRLQLLEEENKERAKREMVMYSITVAFWLLNSWLWFRR [MFF] | category 3

Lab log: APOBEC3B — assign solubility change mitosis (log2) category category 3

Please report the category associated with XPNPEP3 , nothing else. category 1

Class label required: MSGGGTETPVGCEAAPGGGSKKRDSLGTAGSAHLIIKDLGEIHSRLLDHRPVIQGETRYFVKEFEEKRGLREMRVLENLKNMIHETNEHTLPKCRDTMRDSLSQVLQRLQAANDSVCRLQQREQERKKIHSDHLVASEKQHMLQWDNFMKEQPNKRAEVDEEHRKAMERLKEQYAEMEKDLAKFSTF [BLOC1S5] category 2
